Where these numbers come from: ChEMBL document CHEMBL1129008

Below: a set of entries, each annotated with reported pKi.
measured_on: Histamine H3 receptor (Rattus norvegicus, UniProt Q9QYN8)
Sequence (Q9QYN8 whole entry): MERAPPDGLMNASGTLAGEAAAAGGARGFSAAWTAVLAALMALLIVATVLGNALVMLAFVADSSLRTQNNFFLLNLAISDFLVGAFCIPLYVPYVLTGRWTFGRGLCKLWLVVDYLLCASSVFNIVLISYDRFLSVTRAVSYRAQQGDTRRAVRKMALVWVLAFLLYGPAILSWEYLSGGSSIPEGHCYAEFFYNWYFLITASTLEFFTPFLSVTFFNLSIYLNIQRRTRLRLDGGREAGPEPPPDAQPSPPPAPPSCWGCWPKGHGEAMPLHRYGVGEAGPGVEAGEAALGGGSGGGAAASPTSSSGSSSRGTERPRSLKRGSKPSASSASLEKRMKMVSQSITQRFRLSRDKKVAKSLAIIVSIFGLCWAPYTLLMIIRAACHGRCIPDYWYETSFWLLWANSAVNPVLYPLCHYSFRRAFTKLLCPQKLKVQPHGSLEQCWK
// scale note: pKi = -log10(conc_M); give the bare number

The examples below pair each entry with its known result.
Clc1ccc(Cc2noc(CCc3c[nH]cn3)n2)cc1Cl : 8.50
Clc1ccc(Cc2csc(CCc3c[nH]cn3)n2)cc1 : 6.70
Clc1ccc(Cc2noc(Cc3c[nH]cn3)n2)cc1 : 7.60
Fc1ccc(Cc2noc(CCc3c[nH]cn3)n2)cc1 : 8.00

State the recorded pKi for this entry: `CSc1ccc(Cc2noc(CCc3c[nH]cn3)n2)cc1`
7.60

State the recorded pKi for this entry: `Ic1ccc(Cc2noc(CCc3c[nH]cn3)n2)cc1`
8.20

State the recorded pKi for this entry: `Cn1nc(CCc2c[nH]cn2)nc1Cc1ccc(Cl)cc1`
6.90

State the recorded pKi for this entry: `Clc1ccc(CCc2noc(CCc3c[nH]cn3)n2)cc1`
7.70

State the recorded pKi for this entry: `Clc1ccc(Cc2n[nH]c(CCCc3c[nH]cn3)n2)cc1`
7.90

State the recorded pKi for this entry: `CS(=O)(=O)Nc1ccc(Cc2noc(CCc3c[nH]cn3)n2)cc1`
5.90

State the recorded pKi for this entry: `COc1ccc(Cc2noc(CCc3c[nH]cn3)n2)cc1`
7.40

State the recorded pKi for this entry: `Clc1ccc(Cc2n[nH]c(CCc3c[nH]cn3)n2)cc1`
6.70

###

Below: a set of entries, each annotated with reported pKi.
measured_on: Histamine H3 receptor (Rattus norvegicus)
// scale note: pKi = -log10(conc_M); give the bare number

The examples below pair each entry with its known result.
C[S+]([O-])c1ccc(Cc2noc(CCc3c[nH]cn3)n2)cc1 (stereo not given) : 5.60
Clc1ccc(Cc2nc(CCc3c[nH]cn3)no2)cc1 : 7.70
Clc1ccc(Cc2nnc(CCc3c[nH]cn3)s2)cc1 : 7.00
Clc1ccc(CCc2noc(Cc3c[nH]cn3)n2)cc1 : 6.60

State the recorded pKi for this entry: `Clc1ccc(Cc2noc(CCCc3cnc[nH]3)n2)cc1`
7.60

###

measured_on: Histamine H2 receptor (Cavia porcellus) (UniProt P47747)
Sequence (P47747 whole entry): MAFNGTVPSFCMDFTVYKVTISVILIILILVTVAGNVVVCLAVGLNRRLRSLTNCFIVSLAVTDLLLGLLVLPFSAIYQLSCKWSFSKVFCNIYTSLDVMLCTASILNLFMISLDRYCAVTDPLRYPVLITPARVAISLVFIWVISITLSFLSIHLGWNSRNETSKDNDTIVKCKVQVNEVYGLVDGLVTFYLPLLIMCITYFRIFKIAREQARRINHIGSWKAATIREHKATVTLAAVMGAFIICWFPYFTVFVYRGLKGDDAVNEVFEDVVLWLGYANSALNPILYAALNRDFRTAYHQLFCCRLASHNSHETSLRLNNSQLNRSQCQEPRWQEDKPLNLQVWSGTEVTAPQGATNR
assay_notes: Antagonistic activity at H2 receptor was assessed against histamine-induced tachycardia in guinea pig isolated atria
Assay type: functional
Below: a set of entries, each annotated with reported pKB.

State the recorded pKB for this entry: `Clc1ccc(Cc2nnc(CCc3c[nH]cn3)s2)cc1`
5.8

State the recorded pKB for this entry: `Clc1ccc(Cc2noc(CCCc3c[nH]cn3)n2)cc1`
< 5

State the recorded pKB for this entry: `Clc1ccc(Cc2n[nH]c(CCCc3c[nH]cn3)n2)cc1`
< 5

State the recorded pKB for this entry: S=C(NC1CCCCC1)N1CCC(c2cnc[nH]2)CC1 [THIOPERAMIDE]
< 5

State the recorded pKB for this entry: `Clc1ccc(Cc2nc(CCc3c[nH]cn3)no2)cc1`
5.6

State the recorded pKB for this entry: `Clc1ccc(CCc2noc(CCc3c[nH]cn3)n2)cc1`
< 5

State the recorded pKB for this entry: `N=C(NCc1ccc(Cl)cc1)SCCCc1c[nH]cn1`
< 6

###

measured_on: UniProt Q9JI35
Sequence (Q9JI35 whole entry): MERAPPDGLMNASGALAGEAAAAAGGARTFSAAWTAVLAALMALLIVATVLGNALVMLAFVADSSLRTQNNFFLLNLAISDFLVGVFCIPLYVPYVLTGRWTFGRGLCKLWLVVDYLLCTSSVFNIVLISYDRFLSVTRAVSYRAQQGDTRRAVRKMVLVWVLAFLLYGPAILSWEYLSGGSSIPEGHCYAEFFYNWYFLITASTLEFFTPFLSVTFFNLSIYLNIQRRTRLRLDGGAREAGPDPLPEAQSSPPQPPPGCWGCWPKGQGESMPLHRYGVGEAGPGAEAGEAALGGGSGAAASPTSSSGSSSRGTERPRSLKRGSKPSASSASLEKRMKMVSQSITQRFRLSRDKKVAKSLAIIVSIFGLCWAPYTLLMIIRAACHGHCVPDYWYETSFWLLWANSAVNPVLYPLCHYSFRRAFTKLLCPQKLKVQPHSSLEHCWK
assay_notes: Antagonistic activity at H3 receptor was assessed on guinea-pig longitudinal muscle strips subjected to electrical field stimulation
Format: functional
assay_endpoint: pKB
// return just the number, without any unit appended

The examples below pair each entry with its known result.
Clc1ccc(Cc2noc(CCCc3c[nH]cn3)n2)cc1 : 6.8
c1ccc(-c2ccc(Cc3noc(CCc4c[nH]cn4)n3)cc2)cc1 : 6.6
Clc1ccc(Cc2noc(CCc3c[nH]cn3)n2)cc1Cl : 8
Cn1nc(CCc2c[nH]cn2)nc1Cc1ccc(Cl)cc1 : 5.8
Fc1ccc(Cc2noc(CCc3c[nH]cn3)n2)cc1 : 8.4
Clc1ccc(Cc2noc(Cc3c[nH]cn3)n2)cc1 : 7.2
S=C(NC1CCCCC1)N1CCC(c2cnc[nH]2)CC1 [THIOPERAMIDE] : 8.3
Ic1ccc(Cc2noc(CCc3c[nH]cn3)n2)cc1 : 7.1

State the recorded pKB for this entry: `FC(F)(F)c1ccc(Cc2noc(CCc3c[nH]cn3)n2)cc1`
8.3

State the recorded pKB for this entry: `Clc1ccc(Cc2csc(CCc3c[nH]cn3)n2)cc1`
7.3

State the recorded pKB for this entry: `Clc1ccc(CCc2noc(CCc3c[nH]cn3)n2)cc1`
7.7

State the recorded pKB for this entry: `COc1ccc(Cc2noc(CCc3c[nH]cn3)n2)cc1`
6.5
